test: yeast display, Sf9 membrane polyspecificity reagent, FACS + sequencing; frameworks hold sequencing errors
Quantity Measured: polyreactivity (PSR sort gate)

Study these solved cases before continuing.
QVQLVELGGGLVQAGGILRLSCAASGSIFSWNDMGWYRQAPGKERELVAAITSGGSTYYADSVKGRFTISRDNAKNTVYLQMNSLKPEDTAVYYCAAGQDLHDFDYWGQGTQVTVSS :: low polyreactivity
QVQLVESGGGLVQAGGSLRLSCAASGFTFSDNAMVWYRQAPGKERELVAAISEGSGITYYADSVKGRFTISRDNAKNTVTLQMNSLKPEDNAVYYCAADWLSKYDYWGQGTQVTVSS :: low polyreactivity
QVQLVESGGGLVQAGGSLRLSCAASGFTFPNYAMGWYRQAPGKERELVAAITSGGGRTNYADSVKGRFTISRDNAKNTVYLQMNSLKPEDTAVYYCNAEKTYLGSRYRPYNYWGQGTQVTVSS :: low polyreactivity
QVHLVESGGGLVQAGGSLRLSCAASGFIFYPYAMGWYRQAPGKERELVAAITSSGGSTYYADSVKGRFTISRDNAKNTVYLQMNSLKPEDTAVYYCAAYTSYYGTIIAYRYYYWGQGTQVTVSS :: high polyreactivity
QVQLVESGGGLVQAGGSLRLSCAASGRIFSAYAMGWYRQAPGKERELVAAISRSRGRTYYADSVKGRVTISRDNAKNTVYLQMNSLKPEDTAVYYCAAARFAIVRGDYWGQGTQVTVSS :: high polyreactivity
QVQLVESGGGLVQAGGSLRLSCAASGPISAIYDMGWYRQAPGKEREVVAAISGGTSTYYADSVKGRFTISRDNAKNTVYLQMNSLKPEDTAVYYCNAEASSYHGVEDEYDYWGQGTQVTVSS :: low polyreactivity
QVQLVESGGGLVHAGGSLRLSCAASGILFGYYAIGWYRQAPGKERELVAAITSGSSTDYADSVKGRFTISRDNAKNTFYLQMNSLKPEDTAVYYCNAVTSASTYTFPFDYWGQGTQVTVSS :: low polyreactivity
QVQLVDSGGGLVQAGGSLRLSCAASGITSHYYAMGWYRQAPGKERELVAAITSSGSTYYADSVKGRFTISRDNAKNTVYLQMNSLKPEVTAVYYCATTVWYKKAPYPDGDYWGQGTQVTVSS :: low polyreactivity

I need polyreactivity (PSR sort gate) for every entry listed below, if you could help.
1. QVHLVESGGGLVQAGGSLRLSCAASGRTFYTYAMGWYRQATGKERELVAVIRRDGSTSYADSVKGRFTISRDNAKNTVFLQKNSLKPEDTAVYYCAVTRRGEYYWGQGTQVTVSS
2. QVQHVESVGGLVQAGGSLRLSCAASGLIFLYNAMGWYRQAPGKVRELVAAITSSGGSTYYADSVKGRLTISRDYAKNTVYLQMNSLKPEDTAVYYCANRYQSYYYSHWGYRYYWGQGTQVTVSS
3. QVQLVESGGGLVQAGGSLRLSCAASGRIFYTYVMGWYRQAPGKERELVAAINRSGGTTYYADSVKGRFTISRDNAKNTGYLPMNSLKPEDTAVYYCNATLPDYWPYYYYQGGDDYWGQGTQVTVSS

Result block:
high polyreactivity
high polyreactivity
low polyreactivity
